Study target: Delta-5-Desaturase (D5D), membrane preparations of D5D-overexpressing HEK293 6E cells (Homo sapiens, UniProt O60427)
Sequence (O60427 whole entry, species assumed): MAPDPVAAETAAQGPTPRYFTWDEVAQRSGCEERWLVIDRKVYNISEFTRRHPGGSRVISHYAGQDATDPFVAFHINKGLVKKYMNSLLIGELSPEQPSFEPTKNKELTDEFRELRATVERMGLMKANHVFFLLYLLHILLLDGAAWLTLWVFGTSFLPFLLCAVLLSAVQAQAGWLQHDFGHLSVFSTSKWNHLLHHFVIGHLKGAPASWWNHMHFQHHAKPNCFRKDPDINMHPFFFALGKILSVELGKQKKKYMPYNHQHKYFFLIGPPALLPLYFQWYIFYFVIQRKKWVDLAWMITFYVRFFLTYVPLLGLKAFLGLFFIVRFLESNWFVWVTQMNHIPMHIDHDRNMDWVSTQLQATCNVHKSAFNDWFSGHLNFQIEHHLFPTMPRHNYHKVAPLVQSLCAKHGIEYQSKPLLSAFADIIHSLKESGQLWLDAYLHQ
Method: In vitro measurement of Delta-5-Desaturase inhibitory activity using DGLA-CoA and Arachidonyl-CoA mass spectrometric assays
Condition summary: D5D membrane 10 μg/mL, one-hour incubation, average of at least two independent runs
Give pIC50 for every item shown.
Answer as the number alone; pIC50 is minus log10 of concentration in mol/L.

Value lookup for pIC50; key = Cc1nn2c(=O)c(-c3cnn(CC4CC(F)(F)C4)c3)c(C(F)(F)F)nc2s1 6.98

Can you share its pIC50? I mean this compound: Cn1ccc2nc(C(F)(F)F)c(-c3cnn(CC(F)(F)C(F)(F)F)c3)c(=O)n21 6.44

GET /values?readout=pIC50&item= Cc1cn2c(=O)c(-c3cnn(CC(F)(F)C(F)(F)F)c3)c(C(F)(F)F)nc2n1CCO 7.93

# get_value(readout='pIC50', item= Cc1nn2c(=O)c(-c3ccn(CC(F)(F)C(F)(F)F)n3)c(C(F)(F)F)nc2s1 ) 4.75

Please report the recorded pIC50 for Cc1cn2c(=O)c(-c3cnn(CCC(F)(F)F)c3)c(C(F)(F)F)nc2n1CC#N . 8.43

----------
Study target: Delta-5-Desaturase (D5D), membrane preparations of D5D-overexpressing HEK293 6E cells (Homo sapiens)
Method: In vitro measurement of Delta-5-Desaturase inhibitory activity using DGLA-CoA and Arachidonyl-CoA mass spectrometric assays
Condition summary: D5D membrane 10 μg/mL, one-hour incubation, average of at least two independent runs
Description: In Vitro Measurement of Delta-5-Desaturase Inhibitory Activity Using DGLA-CoA and Arachidonyl-CoA Mass Spectrometric Assays Membrane preparations of D5D-overexpressing HEK293 6E cells were prepared in which the total protein concentration was 5.6 mg/mL. […] DGLA-CoA and Arachidonyl-CoA were detected by multiple reaction monitoring (MRM) of the doubly charged parent ions at m/z 526.6 and 525.6, respectively. […] IC50 values were averaged values determined by at least two independent runs. […]
Would you mind telling me the reported IC50 of each entry?
Provide only the numeric value, understood in nM.

Report IC50 for Cc1cn2c(=O)c(-c3cnn(CC(F)(F)C(F)(F)F)c3)c(C(F)(F)F)nc2n1-c1ccccc1 please. 4120

Recorded IC50 of Cc1cn2c(=O)c(-c3cnn(CCC(F)(F)F)c3)c(C(F)(F)F)nc2n1C[C@H]1CC1(F)F (single isomer, unassigned) , please. 1170

Returns the measured IC50 for the input compound. Input: Cc1cn2c(=O)c(-c3cnn(C[C@@H]4CC4(F)F)c3)c(C(F)(F)F)nc2[nH]1 (single isomer, unassigned) 12

# get_value(readout='IC50', item= COCc1cn2c(=O)c(-c3cnn(CC(F)(F)C(F)(F)F)c3)c(C(F)(F)F)nc2n1C ) 210

Requested field: IC50. Item: COc1cn2c(=O)c(-c3cnn(CC(F)(F)C(F)(F)F)c3)c(C(F)(F)F)nc2n1C 32.8

Look at this compound and give its reported IC50. Cc1cn2c(=O)c(-c3cnn(CC4CC4(F)F)c3)c(C(F)(F)F)nc2[nH]1 (racemic) 26

What does the record list as IC50 for O=c1c(-c2ccc(OCC(F)(F)F)cc2)c(C(F)(F)F)nc2sc(CO)cn12 ? 0.9

Recorded IC50 of O=c1c(-c2ccc(OCC(F)(F)F)cc2)c(C(F)(F)F)nc2sc(Cl)cn12 , please. 4.8

Field request: IC50 | item: Cc1cn2c(=O)c(-c3cnn(CCC(F)(F)F)c3)c(C(F)(F)F)nc2n1CCN(C)C 1480

What does the data say about its IC50? Entry: Cn1c(C2CC2)cn2c(=O)c(-c3cnn(CC(F)(F)C(F)(F)F)c3)c(C(F)(F)F)nc12 120

What value of IC50 has been reported for the following compound? Cc1cn2c(=O)c(-c3cnn(CC(F)(F)C(F)(F)F)c3)c(C(F)(F)F)nc2o1 18.8

What value of measured IC50 is listed for Cc1cn2c(=O)c(-c3cnn(CC(F)(F)C(F)(F)F)c3)c(C(F)(F)F)nc2n1C1COC1 ? 10.1

Recorded IC50 of O=c1c(-c2cnn(CCC(F)(F)F)c2)c(C(F)(F)F)nc2n1CCC2 , please. 235

Which value of IC50 has been reported for Cc1cn2c(=S)c(-c3cnn(CC(F)(F)C(F)(F)F)c3)c(C(F)(F)F)nc2n1C in the records? 132

What value of measured IC50 is listed for O=c1c(-c2cnn(CC(F)(F)C(F)(F)F)c2)c(C(F)(F)F)nc2sc(CO)nn12 ? 21.1

State the recorded IC50 for this entry: O=c1c(-c2cnn(CC(F)(F)C(F)(F)F)c2)c(C(F)(F)F)nc2sc(Cl)cn12 6.4

----------
Study target: Delta-5-Desaturase (D5D), membrane preparations of D5D-overexpressing HEK293 6E cells (Homo sapiens)
Method: In vitro measurement of Delta-5-Desaturase inhibitory activity using DGLA-CoA and Arachidonyl-CoA mass spectrometric assays
Condition summary: D5D membrane 10 μg/mL, one-hour incubation, average of at least two independent runs
pIC50: −log10 of the molar value.
Cut-off 6 on pIC50, inclusive. At or above means true; below means false.

Is reported pIC50 greater than or equal to 6 here: COCc1cn2c(=O)c(-c3cnn(CCC(F)(F)F)c3)c(C(F)(F)F)nc2n1C true

Kindly determine if pIC50 recorded for Cc1nn2c(=O)c(-c3cnn(CC4COC4)c3)c(C(F)(F)F)nc2s1 is above or exactly 6. false

Decide: is the reported value of pIC50 for Cc1cn2c(=O)c(-c3cnn(CC(F)(F)C(F)(F)F)c3)c(C(F)(F)F)nc2n1-c1cnccn1 equal to or greater than 6? true

Textbook exercise: given the entry COc1nn2c(=O)c(-c3cnn(CC(F)(F)C(F)(F)F)c3)c(C(F)(F)F)nc2s1 , state whether its pIC50 is greater than or equal to 6. true

pIC50 >= 6 for Cc1cn2c(=O)c(-c3cnn(CCC(F)(F)F)c3)c(C(F)(F)F)nc2n1C[C@@H]1CC1(F)F (single isomer, unassigned) ? true

Decide: pIC50 of COC(=O)n1c(C)cn2c(=O)c(-c3cnn(CC(F)(F)C(F)(F)F)c3)c(C(F)(F)F)nc12 >= 6? true

Could you tell me if the measured pIC50 of Cc1cn2c(=O)c(-c3cnn(CC(F)(F)C(F)(F)F)c3)c(C(F)(F)F)nc2n1-c1cn[nH]c1 reaches 6 or more? true

Has [2H]C([2H])([2H])n1c(C)cn2c(=O)c(-c3cnn(CC(F)(F)C(F)(F)F)c3)c(C(F)(F)F)nc12 a recorded pIC50 greater than or equal to 6? true

Dear colleague, could you confirm whether Cc1cn2c(=O)c(-c3cnn(CC(F)(F)C(F)(F)F)c3)c(C(F)(F)F)nc2n1CC(C)(C)O has pIC50 at or above 6? true

Could you please find out whether Cc1cn2c(=O)c(-c3cnn(CC4CC4)c3)c(C(F)(F)F)nc2n1C has pIC50 that meets 6 or exceeds it? true

Say whether CNCc1nn2c(=O)c(-c3cnn(CC(F)(F)C(F)(F)F)c3)c(C(F)(F)F)nc2s1 shows pIC50 of 6 or more. false

In plain terms: is recorded pIC50 at least 6 for O=c1c(-c2cnn(CC(F)(F)C(F)(F)F)c2)c(C(F)(F)F)nc2sc(C3CC3)nn12 ? true

For this molecule, is measured pIC50 6 or higher? Cc1nn2c(=O)c(-c3cnn(C[C@H]4CC4(F)F)c3)c(C(F)(F)F)nc2s1 (single isomer, unassigned) true

----------
Study target: Delta-5-Desaturase (D5D), membrane preparations of D5D-overexpressing HEK293 6E cells (Homo sapiens, UniProt O60427)
Method: In vitro measurement of Delta-5-Desaturase inhibitory activity using DGLA-CoA and Arachidonyl-CoA mass spectrometric assays
Condition summary: D5D membrane 10 μg/mL, one-hour incubation, average of at least two independent runs
pIC50: −log10 of the molar value.
# label = condition met if pIC50 >= 7 else condition not met

Does the reported pIC50 for Cc1cn2c(=O)c(-c3cnn(CC(F)(F)C(F)(F)F)c3)c(C(F)(F)F)nc2n1CCC1(O)CC1 [Example 89] fall at or above the 7 mark? condition met

Threshold query (pIC50 >= 7) on Cc1cn2c(=O)c(-c3cnn(CC(F)(F)C(F)(F)F)c3)c(C(F)(F)F)nc2n1-c1ccncc1 [Example 102] condition not met

Determine whether this compound has pIC50 no lower than 7: CC1Cn2c(nc(C(F)(F)F)c(-c3cnn(CC(F)(F)C(F)(F)F)c3)c2=O)S1 (stereo not shown) [Example 24] condition not met

Could you verify whether the entry Cn1ccn2c(=O)c(-c3cnn(CC(F)(F)C(F)(F)F)c3)c(C(F)(F)F)nc12 [Example 37] shows pIC50 of no less than 7? condition met

Exam item: decide whether the reported pIC50 for CN1C(=O)Cn2c1nc(C(F)(F)F)c(-c1cnn(CC(F)(F)C(F)(F)F)c1)c2=O [Example 3] is at least 7. condition met

Is reported pIC50 greater than or equal to 7 here: Cc1cn2c(=O)c(-c3ccn(CC(F)(F)C(F)(F)F)n3)c(C(F)(F)F)nc2n1C [Example 70] condition not met

Does the reported pIC50 for O=c1c(-c2cnn(CCC(F)(F)F)c2)c(C(F)(F)F)nc2sc(CO)nn12 [Example 46] fall at or above the 7 mark? condition met

I'd appreciate it if you could say whether Cn1ncn2c(=O)c(-c3cnn(CC(F)(F)C(F)(F)F)c3)c(C(F)(F)F)nc12 [Example 27] has pIC50 at least equal to 7. condition met

State whether the measured pIC50 reaches 7, counting equality as reaching it, for Cc1cn2c(=O)c(-c3cnn(CC(F)(F)C(F)(F)F)c3)c(C(F)(F)F)nc2n1CC#N [Example 86] condition met

Form field: pIC50 at least 7? Entry: C[C@H]1Cn2c(nc(C(F)(F)F)c(-c3cnn(CC(F)(F)C(F)(F)F)c3)c2=O)S1 (single isomer, unassigned) [Example 113] condition met

# check: pIC50 of Cc1nn2c(=O)c(-c3cnn(CC(F)(F)C(F)(F)F)c3)c(C(F)(F)F)nc2s1 [Example 2] is greater than or equal to 7 condition met

Is reported pIC50 greater than or equal to 7 here: O=c1c(-c2cnn(CCC(F)(F)F)c2)c(C(F)(F)F)nc2sccn12 [Example 8] condition met

Reported pIC50 at or above 7? Cc1cn2c(=O)c(-c3cnn(C[C@@H]4CC4(F)F)c3)c(C(F)(F)F)nc2n1C (single isomer, unassigned) [Example 110] condition met

Check if pIC50 >= 7 (inclusive). Item: O=c1c(-c2cnn(CC(F)(F)C(F)(F)F)c2)c(C(F)(F)F)nc2n1CCS2 [Example 22] condition met

Would you say Cc1cn2c(=O)c(-c3ccc(OCC(F)(F)F)cc3)c(C(F)(F)F)nc2n1CC1CC1 [Example 68] shows pIC50 at minimum 7? condition not met

Please check the record Cc1nn2c(=O)c(-c3cnn(CC(F)(F)C(F)(F)F)c3)c(C(F)(F)F)nc2n1C [Example 13] and state if its pIC50 is at or above 7. condition not met

Please tell me: is the compound Cc1nn2c(=O)c(-c3cnn(CCC(F)(F)F)c3)c(C(F)(F)F)nc2n1C [Example 14] at or over 7 in terms of pIC50? condition not met

Check this compound for pIC50 at or above 7: Cc1cc2nc(C(F)(F)F)c(-c3cnn(CC(F)(F)C(F)(F)F)c3)c(=O)n2n1C [Example 16] condition not met

Test whether the compound Cc1cn2c(=O)c(-c3cnn(CC(F)(F)C(F)(F)F)c3)c(C(F)(F)F)nc2n1-c1cccc(Cl)n1 [Example 101] records pIC50 of 7 or higher. condition not met

Entry O=c1c(-c2ccc(OCC(F)(F)F)cc2)c(C(F)(F)F)nc2sccn12 [Example 31] : is its pIC50 no less than 7? condition met

Identify whether the reported pIC50 of the following compound is 7 or greater: Cc1cn2c(=O)c(-c3cnn(CCC(F)(F)F)c3)c(C(F)(F)F)nc2[nH]1 [Example 74] condition met

Item Cc1nn2c(=O)c(-c3ccc(OCC(F)(F)F)cc3)c(C(F)(F)F)nc2s1 [Example 40] with pIC50 of 7 or above? condition not met

Item O=C1Cn2c(nc(C(F)(F)F)c(-c3cnn(CC(F)(F)C(F)(F)F)c3)c2=O)N1 [Example 47] with pIC50 of 7 or above? condition not met

Could you please find out whether Cc1cn2c(=O)c(-c3cnn(C[C@H]4CC4(F)F)c3)c(C(F)(F)F)nc2n1C (single isomer, unassigned) [Example 109] has pIC50 that meets 7 or exceeds it? condition met

Quick check, pIC50 >= 7? Cc1cn2c(=O)c(-c3cnn(CC(F)(F)C(F)(F)F)c3)c(C(F)(F)F)nc2n1CC1CC1 [Example 62] condition met

Has O=c1c(-c2cnn(CC(F)(F)C(F)(F)F)c2)c(C(F)(F)F)nc2[nH]c(Cl)cn12 [Example 49] a recorded pIC50 greater than or equal to 7? condition not met

# bool: pIC50 of Cc1cn(C)n2c(=O)c(-c3cnn(CC(F)(F)C(F)(F)F)c3)c(C(F)(F)F)nc12 [Example 18] >= 7 condition not met

// inclusive: pIC50 at least 7? input: O=c1c(-c2cnn(CCC(F)(F)F)c2)c(C(F)(F)F)nc2sc(C3CC3)nn12 [Example 12] condition not met
